Each entry below carries its recorded t1/2.
- target under test: T1, REGN2054 (mf TFRC ecto-mmh): monomeric monkey (cyno) Tfrc ectodomain (C89-F760) with C-terminal … (monkey (cyno, Macaca fascicularis), UniProt H9EXL1 89-760)
- T1 construct: range 89-760; also called mfTFR-mmh; mfTfR-mmh
- T1 sequence (chain, as listed by the source): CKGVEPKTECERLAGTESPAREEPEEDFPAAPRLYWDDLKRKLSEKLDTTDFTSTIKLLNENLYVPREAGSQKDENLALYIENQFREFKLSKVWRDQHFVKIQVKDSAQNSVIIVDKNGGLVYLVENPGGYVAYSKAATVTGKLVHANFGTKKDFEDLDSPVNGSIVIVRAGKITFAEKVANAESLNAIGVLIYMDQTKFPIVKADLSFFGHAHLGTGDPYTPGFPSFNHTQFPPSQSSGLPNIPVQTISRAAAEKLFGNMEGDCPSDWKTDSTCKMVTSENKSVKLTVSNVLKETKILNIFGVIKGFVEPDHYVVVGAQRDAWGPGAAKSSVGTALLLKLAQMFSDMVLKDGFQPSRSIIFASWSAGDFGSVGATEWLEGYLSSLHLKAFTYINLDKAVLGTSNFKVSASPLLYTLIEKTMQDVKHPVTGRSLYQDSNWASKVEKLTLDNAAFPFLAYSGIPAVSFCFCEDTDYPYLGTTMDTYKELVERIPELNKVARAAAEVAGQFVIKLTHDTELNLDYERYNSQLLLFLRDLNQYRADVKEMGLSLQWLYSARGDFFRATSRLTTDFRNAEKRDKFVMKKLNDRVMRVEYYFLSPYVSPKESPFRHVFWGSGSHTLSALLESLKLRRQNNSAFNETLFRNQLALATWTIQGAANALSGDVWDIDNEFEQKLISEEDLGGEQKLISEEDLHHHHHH
- test description: SPR Biacore, IgG captured by anti-hFc, 25 C
Express the result in min but write the number alone.

These recorded examples may help you get a feel for the data.
binder	unit abbreviation	t1/2
12801B anti-hTfR monoclonal antibody (bivalent IgG1) (antibody, V domains shown, hIgG1/kappa) VH: EVQLLESGGALVQPGGSLRLSCAASGFTFTSYAMHWVRQAPGKGLEWVSSIRGSGGGTYSADSVKGRFTISRDNSRDTLYLQMNSVRAEDTAVYYCARSHDYGAFDFFDYWGQGTLVTVSS VL: DIQMTQSPSSLSASVGDRVTITCRASQGIRTDLGWYQQKPGKAPKRLIYAASSLQSGVPSRFSGSGSGTEFTLTISSLRPEDFATFYCLQYNSYPLTFGGGTKVEIKR	min	17.7
31863B anti-hTfR monoclonal antibody (bivalent IgG1) (antibody, V domains shown, hIgG1/kappa) VH: EVQLVESGGGLVQPGGSLRLSCAASGFTFNSYAMTWVRQAPGKGLEWVSFIGGSTGNTYYAGSVKGRFTISSDNSKKTLYLQMNSLRAEDTAVYYCAKGGAARRMEYFQHWGQGTLVTVSS VL: DIQMTQSPSSLSASIGDRVTITCRASQGISNYLAWYQQKPGKVPKLLIYAASTLQSGVPSRFSGSGSGTDFTLTISSLQPEDVATYYCQNHNSVPLTFGGGTKVEIKR	min	3.9
69331 anti-hTfR monoclonal antibody (bivalent IgG1) (antibody, V domains shown, hIgG1/kappa) VH: QVQLVESGGGVVQPGRSLRLSCIASGFTFSVYGIHWVRQAPGKGLEWMAVISHDGNIKHYADSVKGRFTISRDNSKNTLYLQINSLRTEDTAVYYCAKDTWNSLDTFDIWGQGTMVTVSS VL: DIQLTQSPSSLSASVGDRVTITCWASQGISSYLAWYQQKPGKAPKLLIYAASTLQSGVPSRFSGSGSGTEFTLTISSLQPEDFATYYCQQLNSYPLTFGGGTKVEIKR	min	1.2
69340 anti-hTfR monoclonal antibody (bivalent IgG1) (antibody, V domains shown, hIgG1/kappa) VH: EVQLVESGGGLVQPGRSLRLSCAASGFTFDDKAMHWVRQVPGKGLEWISGISWNSGTIGYADSVKGRFIISRDNAKNSLYLQMNSLRAEDTALYYCAKDGDTSGWYWYGLDVWGQGTTVTVSS VL: EIVLTQSPATLSLSPGERATLSCRASQSVSSYLAWYQQKPGQAPRLLIHDVSNRATGIPARFSGSGSGTDFTLTISSLEPEDFVVYYCQQRSDWPITFGQGTRLEIKR	min	16
31874B anti-hTfR monoclonal antibody (bivalent IgG1) (antibody, V domains shown, hIgG1/kappa; also called H1H31874B; REGN17517) VH: EVQLVESGGGLVQPGGSLRLSCAASGFAFSSYAMTWVRQAPGKGLEWVSVISGTGGSTYYADSVKGRFTISRDNSKNTLYLQMNSLRAEDTAVYYCAKGGAARRMEYFQYWGQGTLVTVSS VL: DIQMTQSPSSLSASVGDRVTITCRASQGISNYLAWYQQKPGKVPNLLIYAASTLQSGVPSRFSGSGSGTDFTLTISSLQPEDVATYYCQKYNSAPLTFGGGTKVEIKR	min	1.2
12795B anti-hTfR monoclonal antibody (bivalent IgG1) (antibody, V domains shown, hIgG1/kappa) VH: EVQLVESGGGLVQPGGSLRLSCATSGFTFTSYDMKWVRQAPGLGLEWVSAISGSGGNTYYADSVKGRFTISRDNSRNTLYLQMNSLRAEDTAVYYCTRSHDFGAFDYFDYWGQGTLVTVSS VL: DIQMTQSPSSLSASVGDRVTITCRASQGIRDHFGWYQQKPGKAPKRLIYAASSLHSGVPSRFSGSGSGTEFTLTISSLQPEDFATYYCLQYDTYPLTFGGGTKVEIKR	min	162

Entry 69263 anti-hTfR monoclonal antibody (bivalent IgG1) (antibody, V domains shown, hIgG1/kappa) VH: EVQLVESGGGLVQPGRSLRLSCAVSGFTFDDYAMHWVRQAPGKGLEWVSGISWNSGTRGYADSVKGRFTISRDNAKNSLYLQMNSLRGEDTALYYCVKDITISPNYYGMDVWGQGTTVTVSS VL: DIQMTQSPSSLSASVGDRVTITCRASQDISHYSAWYQQKPGKLPNLLIYAASTLQSGVPSRFSGSGSGTDFSLTTSSLQPEDVATYYCQKYNSVPLTFGGGTKVEIKR ; t1/2 = 3.1

Entry 12808B anti-hTfR monoclonal antibody (bivalent IgG1) (antibody, V domains shown, hIgG1/kappa) VH: QLQLQESGPGLVKPSETLSLTCTVSGESISSNTYYWGWIRQPPGKGLEWIGSIDYSGTTNYNPSLKSRVTISVDTSRNHFSLRLRSVTAADTAVYYCAREWGNYGYYYGMDVWGQGTTVTVSS VL: DIQMTQSPSSLSASVGDRVTINCRASQGIRNDLGWYQQKPGKAPKRLIYAASSLQSGVPLRFSGSGSGTEFTLTINNLQPEDFATYYCLSHNSYPWTFGQGTKVEIKR ; t1/2 = 25.5

Entry 69348 anti-hTfR monoclonal antibody (bivalent IgG1) (antibody, V domains shown, hIgG1/kappa) VH: QVQLVESGGGVVQPGRSLRLSCAASGFTFTTYGMHWVRQAPGKGLEWVAVIWYDGSNKYYGDSVKGRFTISRDNSKNTLYLQMNSLRVDDTAVYYCTRTHGYTRSSDGFDYWGQGTLVTVSS VL: DIQMTQSPSSLSASVGDRVTITCRASQSIRNVLGWFQQKPGKAPQRLIYAASSLQSGVPSRFSGSGSGTEFTLTISSLQPEDFATYYCLQHNFYPLTFGGGTKVEIKR ; t1/2 = 25.1

Entry 12799B anti-hTfR monoclonal antibody (bivalent IgG1) (antibody, V domains shown, hIgG1/kappa; also called H1H12799B; REGN17508) VH: QITLKESGPTLVKPTQTLTLTCTFSGFSLSTSGVGVVWIRQPPGKALEWLALIYWNDHKRYSPSLGSRLTITKDTSKNQVVLTMTNMDPVDTATYYCAHYSGSYSYYYYGLDVWGQGTTVTVSS VL: DIQMTQSPSSVSASVGDRVTITCRASQGIASWLAWYQQKPGKAPELLIYAASSLQGGVPSRFSGSGSGTDFTLTISSLQPEDFAIYYCQQANYFPWTFGQGTKVEIKR ; t1/2 = 71.2

Entry 12802B anti-hTfR monoclonal antibody (bivalent IgG1) (antibody, V domains shown, hIgG1/kappa) VH: QVQLVESGGGLVKPGGSLRLSCAASGFTFSDYFMSWIRQAPGKGLEWVSYISSTGSTINYADSVKGRFTISRDNVKNSLYLQMTSLRVEDTAVYYCTRDNWNYEYWGQGTLVTVSS VL: EIVMTQSPATLSVSPGERATLSCRASQSVSINLAWYQQKPGQAPRLLIFVASTRATGIPARFSGSGSGTEFTLTISSLQSEDFATYYCQQYDIWPYTFGQGTKLEIKR ; t1/2 = 21.8
